# TEST NAME: NCI Yeast Anticancer Drug Screen. Data for the mgt1 strain (AID 153)
# MEASUREMENT SETUP: S. cerevisiae mgt1 mutant growth inhibition; at 33.0 µM; hits give high values
Compounds without any hit were thinned out: in the full panel of roughly 79,000, 15% have a hit. Activity calls are given as the source filed them. Cut-off read from the data, not from the text of the source: active = growth inhibition above about 70%; inactive = the rest.
ASSAY READOUT: growth inhibition

Recorded growth inhibition, per entry:
// sample CCC1(O)C(=O)OCc2c1cc1n(c2=O)Cc2cc3cc(Cl)ccc3nc2-1 (configuration not stated) , its growth inhibition was 57% (inactive)

# compound Cc1ccc2nc3sc(=O)sc3nc2c1 ; its growth inhibition = 98% (active)

Just so you know, measured growth inhibition for CN(CCc1ccc(Br)cc1)CCN1CCCCC1 came out at 94% (active)

Others:
Lookup result for COC(=O)C1=C(C(=O)OC)C2OC1c1cc3ccccc3cc12 ; measured growth inhibition: 99% (active)

Record Cc1nc2ccccc2cc1C[N+]12CN3CN(CN(C3)C1)C2 . Reported growth inhibition: 6% (inactive)

The value of growth inhibition measured for the compound C[CH2][Sn]([CH2]C)([O]S(C)(=O)=O)[O]S(C)(=O)=O turned out to be -7% (inactive)

Record CCOP(=O)(CC(C)P(=O)(OCC)OCC)OCC.C[CH2][Sn]([Cl])([Cl])[CH2]C (configuration not stated) , field growth inhibition: 67% (inactive)

The reported growth inhibition of the compound O=C(Nc1cc(Cl)ccc1Cl)C(Cl)(Cl)Cl was 5% (inactive)

###

# TEST NAME: NCI Yeast Anticancer Drug Screen. Data for the rad52 strain (AID 147);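 note: 0% = growth of vehicle-treated control cultures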
# MEASUREMENT SETUP: S. cerevisiae rad52 mutant growth inhibition; at 3.7 µM; hits give high values
Compounds without any hit were thinned out: in the full panel of roughly 79,000, 15% have a hit.
ASSAY READOUT: growth inhibition (%)
Enter your answer as a number in %; do not include the unit.

Consider the worked cases shown below.
The recorded growth inhibition for O=[N+]([O-])c1ccc(N2CCC(CCCC3CCN(c4ccc([N+](=O)[O-])cc4[N+](=O)[O-])CC3)CC2)c([N+](=O)[O-])c1 is -17

The compound identified as O=C1c2ccc3ccccc3c2CCC1N1CCCCC1 (configuration not stated) registered its growth inhibition at 16

growth inhibition in this record for C[CH2][Sn]1([CH2]C)[O]C2C(O)OC(CO)C(O)C2[O]1 (configuration not stated) : 10

Others:
Form: compound = O=c1oc2ccccc2c(O)c1C(c1ccc2c(c1)Cc1ccccc1-2)c1c(O)c2ccccc2oc1=O ; growth inhibition = 15

Lab book: growth inhibition of CC1=C(CO)C2=C(C)C3(CC3)[C@@](C)(O)C(=O)C2=C1 noted as 9

Lab book: growth inhibition of CC[C@@]1(O)C(=O)OCc2c1cc1n(c2=O)Cc2cc3ccccc3nc2-1 noted as 98

###

# TEST NAME: NCI Yeast Anticancer Drug Screen. Data for the rad50EPP+ strain (AID 151);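 note: 0% = growth of vehicle-treated control cultures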
# MEASUREMENT SETUP: S. cerevisiae rad50 mutant strain, at 11.0 µM
This is part of a sample that, as a whole, favours compounds with a hit. Of some 79,000 tested, about 15% had one in any assay. The source made the active and inactive calls. Rule as the data show it: active = growth inhibition above about 70%; inactive = the rest.
Outcomes you can answer with include only these: t = active, f = inactive

// below: answered compounds
# input Hello, I am checking results. What call was entered for CCNC(=O)OCC1C2=C(C(=O)C(C)=C(N)C2=O)N2CC3C(N3C)C12OC (centres undefined) ?
# output f

# input Which outcome was entered for the compound CS(=O)(=O)OCCN(CCOS(C)(=O)=O)c1ccc(C=O)cc1 in this test?
# output f

# input Can you look up the reported call for C=C[C@H]1CN2CC[C@H]1C[C@@H]2[C@@H](O)c1ccnc2ccccc12 for me?
# output f

New cases:
# input Per the assay record, what outcome was assigned to CN(C)CCC(C(=O)C(Br)Br)(c1ccccc1)c1ccccc1 ?
# output f

# input Recorded call for CCCN(CCC)c1c([N+](=O)[O-])cc(S(N)(=O)=O)cc1[N+](=O)[O-] ?
# output f

# input How did this test come out for Cc1ccc2c(c1N)C(=O)c1ccccc1C2=O ?
# output f

# input Which result was noted for this compound in the test: S=C1NC2(CCCCC2)NC12CCCCC2
# output f

# input What call does the record list for C[C@]12CCc3nonc3C1CC[C@@H]1C2CC[C@]2(C)C(=O)CCC12 (some centres undefined) ?
# output f

# input Recorded call for O=[N+]([O-])c1cc(S(=O)(=O)F)ccc1Cl ?
# output f

# input What classification did CSC(=Nc1ccccc1)N(c1ccccc1)c1nc(=[N+](C)C)ss1 end up with in this test?
# output f

# input Call for entry CSc1ccccc1[As](C)C :
# output t

# input Outcome? O=C1OC2C(O1)C1(Cl)C(Cl)=C(Cl)C2(Cl)C1(Cl)Cl (centres undefined)
# output f

# input Recorded test call requested for CCOC(=O)C1C2c3ccccc3C(c3ccccc32)C1C(=O)OCC (centres undefined)
# output f

# input Any idea what this test logged for CC1=C(N2CC2)C(=O)c2ccccc2C1=O ?
# output f

# input I would be grateful if you could indicate the recorded call for O=C1c2ccc3ccccc3c2CCC1N1CCCCC1 (centres undefined) .
# output t

# input Any idea what this test logged for CN(N=O)C(=O)NNC(=O)N(C)N=O ?
# output f

# input Record lookup: outcome of this test for O=C(O)CCCc1cc(I)c(N(CCCl)CCCl)c(I)c1 ?
# output f

# input Give the logged outcome of this assay for the following compound: O=P(CCCCP(=O)(c1ccccc1)c1ccccc1)(c1ccccc1)c1ccccc1.[Cl][Sn]([Cl])([c]1ccccc1)[c]1ccccc1
# output f

# input Hello, I am checking results. What call was entered for CCOP(=S)(S)OCC.[Pd] ?
# output f
